B1: tRNA (parent)
chain: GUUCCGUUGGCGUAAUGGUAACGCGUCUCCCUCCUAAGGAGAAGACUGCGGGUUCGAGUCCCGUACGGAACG

# Variants of: B1
# test.details: yeast fitness, log relative to wild type (ln ratio); higher = fitter; tRNA-Arg(CCU), competitive growth, 37 C, 1 M NaCl
measured.parameter: yeast fitness (ln)

[
  {
    "variant.descriptor": "U2C G6U C27U C46U C66U",
    "yeast fitness (ln)": -0.183
  },
  {
    "variant.descriptor": "G1A U2C G6U C66U A70G",
    "yeast fitness (ln)": -0.302
  },
  {
    "variant.descriptor": "U2G A43C C46U C66U A69G",
    "yeast fitness (ln)": -0.199
  },
  {
    "variant.descriptor": "U2G G6U C27U A69G A70U",
    "yeast fitness (ln)": -0.227
  }
]

Quick one: yeast fitness (ln) for C27U A43C C46U C66U A69G A70U C71U ?
-0.391
